System: MS2 coat protein
ASSAY SUMMARY: apparent Kd, MS2 coat protein; higher = weaker binding; RNA-MaP array; tryptophan 2.4 mM where present
APPLIED CONDITIONS: designed as: OFF switch for tryptophan; no ligand
satisfied means recorded apparent Kd is 20 nM or above; not satisfied means it is below 20 nM.

Q. apparent Kd >= 20 nM for `CCAUAAGUACCGGUCCUCAGAUCCUCAUGACGAGGACCGGUACGGCCGCCACUCGAAACAUGAGGAUCACCCAUGUAAUAAUACC` ?
A. satisfied

Q. apparent Kd >= 20 nM for `UAUAAUAACUCGGCCGCCACUGGCACAUGAGGAUCACCCAUGUCUAUAUAUAAUAUAUAGUUGCACAGGACCGGGAGAUAUAUAU` ?
A. not satisfied

Q. apparent Kd >= 20 nM for `CGCAACAUGAGGAUCACCCAUGUAAUGACGCGAGGACCGGUACGGCCGCCACUCGCCUGCCAAUGAGCGCAUGCGGCCUGGGUAU` ?
A. not satisfied

Q. apparent Kd >= 20 nM for `GGGUCAGGCGCGGCCGCCACUGCGGUGAUGUGACAUGAGGAUCACCCAUGUUGUCAUGUGGCACAUAGGACCGGGUGCCUGGCCC` ?
A. satisfied

Q. apparent Kd >= 20 nM for `GAGCUCGUGGACUGGCGUGCUCCGCUCCGUCGAGGACCGGUACGGCCGCCACUCGACAUGAGGAUCACCCAUGUGUGAGCUCGCU` ?
A. satisfied

Q. apparent Kd >= 20 nM for `GAUCGAAAUAACGCAUAGGAAAACUAUGCGCGAGGACCGGUACGGCCGCCACUCGUCCUCACAUGAGGAUCACCCAUGUACGAUC` ?
A. satisfied

Q. apparent Kd >= 20 nM for `GGAUAGGACACGGCCGCCACUAGCUAGGAUACUAGCAACAUUUCCUCACAUGAGGAUCACCCAUGUAGGACCGGGUGUCCUAUCG` ?
A. satisfied

Q. apparent Kd >= 20 nM for `GAUAUUUGAAAACAAAUAUCAGUGGGUGAACGAGGACCGGUACGGCCGCCACUCGGACAUGAGGAUCACCCAUGUCCAUGUGAAA` ?
A. not satisfied

Q. apparent Kd >= 20 nM for `CACGAAAGAUCGGCCGCCACUAAUCUAUGUGUUCUUUCACAUGAGGAUCACCCAUGUUCUUGCGUUAGGACCGGGAUUGAGCGUG` ?
A. satisfied

Q. apparent Kd >= 20 nM for `CCGCCUGCCUCACAUGAGGAUCACCCAUGUCGAGGACCGGUACGGCCGCCACUCGUCGUCGGUAAUACAGGCAUUGAAUAAUAUA` ?
A. not satisfied

Q. apparent Kd >= 20 nM for `UAUAUAUAUCACUAACUGUUCUUGAGGUCUCGAGGACCGGUACGGCCGCCACUCGGGCCGCCUCACAUGAGGAUCACCCAUGUCC` ?
A. satisfied

###

Tested on: MS2 coat protein
ASSAY SUMMARY: apparent Kd, MS2 coat protein; higher = weaker binding; RNA-MaP array; FMN 200 µM where present
APPLIED CONDITIONS: designed as: OFF switch for flavin mononucleotide; no ligand
REPORTED METRIC: apparent Kd (nM)
Please reply with the bare figure in nM and do not write the unit itself.

Q. Param item = `GGAUAGGACAGAGGAUAUACUUGCUAGAGAUACUAGCAAAAUUUCCUCACAUGAGGAUCACCCAUGUAGAAGGCUGUCCUAUCG` ; retrieve measured apparent Kd.
A. 6.95

Q. Param item = `CCGAGAAGGAGAGGAUAUGGACAUGAGGAUCACCCAUGUACAUGGGAAUAUAUACUGAAUUUUUACUAGAAGGCUUACAUAAAU` ; retrieve measured apparent Kd.
A. 17.8

Q. Param item = `AACUUGUCAGGAUAUCUUACAUUUGCAUCUUAGUUACCAUUGGAGAAGGGACAUGAGGAUCACCCAUGUUUGGU` ; retrieve measured apparent Kd.
A. 37.1

Q. Param item = `GUCAGCUUGUGAGGAUAUACAACACUGCUUCGGCAGUGUAUUAAGAUCACAUGAGGAUCACCCAUGUAGAAGGCACGAGCUGAU` ; retrieve measured apparent Kd.
A. 14

Q. Param item = `CGAGUCAUAGCUCCUUAGCCAGCCAGAAGGGUCUACAUGAGGAUCACCCAUGUGGUCUCGAAGGGACAGGAUAUGGAGGGCGUA` ; retrieve measured apparent Kd.
A. 5.39

Q. Param item = `UACUCGUGUGAGAAGGGACGUAUCUCCAUGAGGGCAGGGCUAUUAGAGAAGUCAGGAUAUCACAUGAGGAUCACCCAUGUGACG` ; retrieve measured apparent Kd.
A. 8.26

Q. Param item = `UUUUUGUCAGGAUAUGAUUAGAUCUACUUCGGUAGAUCUAAUCAGAAGGGACAUGAGGAUCACCCAUGUAGUUU` ; retrieve measured apparent Kd.
A. 36.5

Q. Param item = `AAGAAACAUGAGGAUCACCCAUGUGAGGAUAUGAUGCGAAUUAUGUAUGUAGUAAGCAUCAGAAGGCACAAAGG` ; retrieve measured apparent Kd.
A. 127

Q. Param item = `UUAGUGGUAGGAUAUCACCCAGGUUACAUGAGGAUCACCCAUGUGACUCAGCAGGCCAAGUGAGAAGGGCUGCUCC` ; retrieve measured apparent Kd.
A. 22.3

Q. Param item = `GUAUCGUAUGUGAGGAUAUAUUAAACCUUGGAUUUGUAGAAGGCACAUGAGGAUCACCCAUGUCCUAGUGGUCC` ; retrieve measured apparent Kd.
A. 29.4

Q. Param item = `GCUAGAUUUGCAGGAUAUUGUAAUUUAUUAUUUCAAGAAGGGCAUUACAUGAGGAUCACCCAUGUCAUCCUAUGGUUUACUAGC` ; retrieve measured apparent Kd.
A. 9.57

Q. Param item = `UGUGCGUUGAUCUUCGAUCGGUGUACAUGAGGAUCACCCAUGUAGGAUAUUCAAAGACGCAGAUAGGAGAAGGACAUCGGAUUU` ; retrieve measured apparent Kd.
A. 18.8

Q. Param item = `UUAACAUGCUUAGGAUAUCGGAUUUUUUUUUUUCGAGAAGGAAGAUUCUUUUUUUUUUACAUGAGGAUCACCCAUGUUUAUUUU` ; retrieve measured apparent Kd.
A. 10.2

Q. Param item = `GGAUAGGACAGAGGAUAUACGUGCUAGAGAUACUAGCAAAAGUUCCUCACAUGAGGAUCACCCAUGUAGAAGGCUGUCCUAUCG` ; retrieve measured apparent Kd.
A. 65.5

Q. Param item = `UAAAGACAUGAGGAUCACCCAUGUGAGGAUAUCGGAGGUGACGGAGCGUCGAGUUCGGCGAGAAGGCGCAGGAA` ; retrieve measured apparent Kd.
A. 81

###

Tested on: MS2 coat protein
ASSAY SUMMARY: apparent Kd, MS2 coat protein; higher = weaker binding; RNA-MaP array
APPLIED CONDITIONS: designed as: ON switch for flavin mononucleotide; no ligand
Please respond with reported apparent Kd for every item in the list.
Please reply with the bare figure in µM and do not write the unit itself.

Q. Param item = `CAUCCAACACAAGGAUAUUGGACGUUUUUCAGCGCACAUGAGGAUCACCCAUGUACAAGGGAGUACAAGAAGGUGUUUUGGAUC` ; retrieve measured apparent Kd.
A. 0.0272

Q. Param item = `UUCUGUUCCAAGAAGGUCAAAAUUGAUGCCUCUGAAGGAUAUUGGACAGCCAAGGUCUGUGACAUGAGGAUCACCCAUGUUCAG` ; retrieve measured apparent Kd.
A. 0.00672

Q. Param item = `UGUCGAUGAUCCAAGGAUAUAUGGAUGCUGACAUGAGGAUCACCCAUGUCCCGAGAAAUCAUUAAAUAGAAGGUGGGCUAUGGCAA` ; retrieve measured apparent Kd.
A. 0.0459

Q. Param item = `UAGACAAAACAGAAGGAAUGAAGUAGAACAACAAUAGGAUAUGUAUAAAAGUAUACAUGAGGAUCACCCAUGUUACCAACAUGA` ; retrieve measured apparent Kd.
A. 0.0114

Q. Param item = `CUAGGCGUGCAGAAGGCGGAAAUAUUUCGUGGCCGAGGAUAUGCUGAUAUAUCGCAAGUGACAUGAGGAUCACCCAUGUGUCUA` ; retrieve measured apparent Kd.
A. 0.0166

Q. Param item = `CACGCGGAGUUAGGAUAUAACGAUUGUCAGCCGUUAGAAGGAACCCAUCGCAAAUCUACGUCUAACAUGAGGAUCACCCAUGUU` ; retrieve measured apparent Kd.
A. 0.00685

Q. Param item = `UGCCUAUACCGAGGAUAUUACGUCAGAUGUGUGUAAGAAGGCGGGUUCCGAUCAACAUGAGGAUCACCCAUGUAUCUUUACGGC` ; retrieve measured apparent Kd.
A. 0.0245

###

Tested on: MS2 coat protein
ASSAY SUMMARY: apparent Kd, MS2 coat protein; higher = weaker binding; RNA-MaP array; FMN 200 µM where present
APPLIED CONDITIONS: ligand present: flavin mononucleotide; designed as: OFF switch for flavin mononucleotide
Please respond with reported apparent Kd for every item in the list.
Please reply with the bare figure in µM and do not write the unit itself.

Q. Param item = `AAGGUACGAGGAUAUACAUAGAUACAGAUACAUGUGGAUGUACAUGAGGAUCACCCAUGUAGAAGGCGUAUAUA` ; retrieve measured apparent Kd.
A. 0.318

Q. Param item = `UACUCGUGUGAGAAGGGACGUAUCUCCAUGAGGGCAGGGCUAUUAGAGAAGUCAGGAUAUCACAUGAGGAUCACCCAUGUGACG` ; retrieve measured apparent Kd.
A. 0.0108

Q. Param item = `UGUGCGUAUGUGAGGAUAUGCUGGUCCUUGGAUCAGCAGAAGGCACAUGAGGAUCACCCAUGUGGUGUCGUACG` ; retrieve measured apparent Kd.
A. 0.185

Q. Param item = `GUAUCGUAUGUGAGGAUAUAUUAAACCUUGGAUUUGUAGAAGGCACAUGAGGAUCACCCAUGUCCUAGUGGUCC` ; retrieve measured apparent Kd.
A. 0.0333

Recorded values, source the EternaBench riboswitch data.
